Tested on: Axin2 protein in colorectal cell line SW480
PROTOCOL SUMMARY: Cellular ELISA assay for stabilizing the Axin2 protein
Assay type: cell-based
EXPERIMENTAL SETUP: Homo sapiens; SW480 cells, 24 hrs; read-out: Axin AC50
Give measured AC50 for each item. Keep answers brief.
Record the value in nM, omitting the unit from your answer.

-- ask # AC50 lookup, item COc1ccc2c(c1)CC1(CCN([C@H]3CCN(Cc4nc5c(c(=O)[nH]4)COCC5)C3=O)CC1)C2=O
-- reply 7

-- ask Requested field: AC50. Item: COc1ccc(C(=O)C2CCN([C@@H]3CCN(CC(=O)Nc4nnc5n4CCS5)C3=O)CC2)cc1 (single isomer, unassigned)
-- reply 78

-- ask For the molecule COc1ccc2c(c1)CC1(CCN([C@@H]3CCN(Cc4nc5c(c(=O)[nH]4)COCC5)C3=O)CC1)C2=O , what AC50 is on record?
-- reply 1790

-- ask Value lookup for AC50; key = COc1ccc(C(=O)C2CCN([C@H]3CCN(CC(=O)Nc4nnc5n4CCS5)C3=O)CC2)cc1
-- reply 1340

----------
Tested on: Wnt ligand-induced signaling in HEK293 cells
PROTOCOL SUMMARY: Wnt-responsive Super-TOp-Flash (STF) luciferase reporter gene assay
Format: cell-based
EXPERIMENTAL SETUP: Homo sapiens, Wnt3A condition medium
Please respond with reported pIC50 for every item in the list.
By convention, pIC50 is the negative base-10 log of a molar concentration.

-- ask Consider the compound COc1ccc2c(c1)CC1(CCN([C@@H]3CCN(Cc4nc5c(c(=O)[nH]4)COCC5)C3=O)CC1)C2=O and give its measured pIC50.
-- reply 6.40

-- ask I am curious: what pIC50 value has been reported for COc1ccc2c(c1)CC1(CCN([C@H]3CCN(Cc4nc5c(c(=O)[nH]4)COCC5)C3=O)CC1)C2=O ?
-- reply 8.77
